- Assayed system: 5-HT2C receptor (Homo sapiens, UniProt P28335)
- Sequence (P28335 33-458): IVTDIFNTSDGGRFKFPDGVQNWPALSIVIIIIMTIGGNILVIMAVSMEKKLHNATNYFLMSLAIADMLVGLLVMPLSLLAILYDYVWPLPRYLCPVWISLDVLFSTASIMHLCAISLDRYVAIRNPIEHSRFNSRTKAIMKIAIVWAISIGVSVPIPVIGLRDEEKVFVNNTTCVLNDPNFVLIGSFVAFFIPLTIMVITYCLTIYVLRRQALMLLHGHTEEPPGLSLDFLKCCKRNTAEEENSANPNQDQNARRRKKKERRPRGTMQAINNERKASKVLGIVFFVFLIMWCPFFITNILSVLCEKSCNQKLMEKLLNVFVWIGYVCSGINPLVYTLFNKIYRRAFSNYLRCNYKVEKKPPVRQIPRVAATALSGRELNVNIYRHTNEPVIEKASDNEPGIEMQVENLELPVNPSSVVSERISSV
- Assay notes: Competition radioligand binding, concentration-response
pKi: −log10 of the molar value.

Cpd smiles: O=C1Nc2ccc(Cl)cc2[C@@](C#CC2CC2)(C(F)(F)F)O1
pKi: 5.77

---

- Assayed system: 5-HT6 receptor (Rattus norvegicus, UniProt P31388)
- Sequence (P31388 whole entry): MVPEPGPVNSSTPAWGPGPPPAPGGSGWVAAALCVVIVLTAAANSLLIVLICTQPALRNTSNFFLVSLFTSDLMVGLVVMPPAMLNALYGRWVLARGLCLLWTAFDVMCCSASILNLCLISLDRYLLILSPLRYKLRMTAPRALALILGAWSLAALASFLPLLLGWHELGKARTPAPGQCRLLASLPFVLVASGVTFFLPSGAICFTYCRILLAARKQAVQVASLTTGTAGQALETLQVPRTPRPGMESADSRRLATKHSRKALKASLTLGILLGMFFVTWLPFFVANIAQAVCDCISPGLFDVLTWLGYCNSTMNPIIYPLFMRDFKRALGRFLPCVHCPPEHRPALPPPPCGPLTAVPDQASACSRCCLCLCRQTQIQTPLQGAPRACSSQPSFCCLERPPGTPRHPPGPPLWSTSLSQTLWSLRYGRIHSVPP
- Assay notes: Competition radioligand binding, concentration-response
Listing of entries alongside the reported Ki.
Observation type: Ki

Compound: NCCc1c[nH]c2ccc(O)cc12 [serotonin, 5-Hydroxytryptamine]
Assayed system: 5-HT6 receptor (Rattus norvegicus, UniProt P31388)
Observation type: Ki
Observed: 105 nM

Compound: O=C1Nc2ccc(Cl)cc2[C@@](C#CC2CC2)(C(F)(F)F)O1 [efavirenz]
Assayed system: 5-HT6 receptor (Rattus norvegicus, UniProt P31388)
Observation type: Ki
Observed: 2200 nM

---

- Assayed system: UniProt P23979
- Sequence (P23979 24-489): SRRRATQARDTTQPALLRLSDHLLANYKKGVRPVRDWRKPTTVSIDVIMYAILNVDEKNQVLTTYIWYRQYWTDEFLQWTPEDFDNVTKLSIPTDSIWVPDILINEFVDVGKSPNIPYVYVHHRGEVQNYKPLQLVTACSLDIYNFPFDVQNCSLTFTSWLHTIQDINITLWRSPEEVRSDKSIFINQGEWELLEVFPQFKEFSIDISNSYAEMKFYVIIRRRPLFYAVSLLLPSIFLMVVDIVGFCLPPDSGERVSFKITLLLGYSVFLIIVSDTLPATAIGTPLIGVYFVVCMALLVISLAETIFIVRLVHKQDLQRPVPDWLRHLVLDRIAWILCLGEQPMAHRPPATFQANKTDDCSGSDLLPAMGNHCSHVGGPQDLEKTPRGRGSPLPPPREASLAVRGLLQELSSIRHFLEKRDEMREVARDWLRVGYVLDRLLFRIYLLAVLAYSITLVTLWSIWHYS
- Assay notes: Whole cell electrophysiology, 5-HT-induced currents, HEK293 cells

Compound: O=C1Nc2ccc(Cl)cc2[C@@](C#CC2CC2)(C(F)(F)F)O1 [efavirenz]
IC50 [µM]: 4.9
